# experimental.target: T1, 4H953-bH
# T1 chain: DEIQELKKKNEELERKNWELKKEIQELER
# protocol.description: two-hybrid library CCNG1;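 also: natural log of median RNA to DNA barcode read ratio; higher means stronger binding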
Quick reference for interaction score among some binders
assay.readout: interaction score

binder="DEIQELEKKIEELKRENWELKKEIQELKR [4H346-bH]" assay_readout="interaction score" reading=0.155
binder="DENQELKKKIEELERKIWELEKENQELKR [4H1828-bH]" assay_readout="interaction score" reading=-0.675
binder="DEIQELKKENEELKRKNWELEKEIQELKR [4H754-bH]" assay_readout="interaction score" reading=0.539
binder="DEIQELEKEIEELKREIWELEKKNQELKR [4H72-bH]" assay_readout="interaction score" reading=0.653

Reference source for all entries: paper PMC10397247
